# GI50 per record follows
test system: MOLT-4 (human acute lymphoblastic leukemia cells); assay: MTT cancer cell growth inhibition; assay type: cell-based; conditions: Homo sapiens, MOLT-4, 72 h, MTT, 72 hours incubation; read-out: GI50 Mol

{"Compound": "C/C=C1\\NC(=O)c2ccc(F)c(n2)CNC(=O)C[C@@H](/C=C/CCSC(=O)CCCCCCC)OC(=O)[C@H](Cc2ccccc2)NC1=O [Example 71]", "Unit tag": "µM", "GI50": 0.02}
{"Compound": "C/C=C1\\NC(=O)c2nc(ccc2F)CNC(=O)C[C@@H](/C=C/CCS)OC(=O)[C@H](CC)NC1=O [Compound 109]", "Unit tag": "µM", "GI50": 0.03}
{"Compound": "C/C=C1\\NC(=O)c2cc(C)cc(n2)CNC(=O)C[C@@H](/C=C/CCSC(C)=O)OC(=O)[C@H](Cc2ccccc2)NC1=O [Example 67]", "Unit tag": "µM", "GI50": 0.03}
{"Compound": "C/C=C1\\NC(=O)c2nc(ccc2F)CNC(=O)C[C@@H](/C=C/CCSC(C)=O)OC(=O)[C@@H](C)NC1=O [Compound 100]", "Unit tag": "µM", "GI50": 0.03}
{"Compound": "C/C=C1\\NC(=O)c2ccc(F)c(n2)CNC(=O)C[C@@H](/C=C/CCSC(=O)CCCCCC)OC(=O)[C@H](C(C)C)NC1=O [Example 35]", "Unit tag": "µM", "GI50": 0.04}
{"Compound": "CC(=O)SCC/C=C/[C@@H]1CC(=O)NCc2cccc(n2)C(=O)NC(=C(C)C)C(=O)N[C@@H](C(C)C)C(=O)O1 [Compound 20]", "Unit tag": "µM", "GI50": 0.13}
{"Compound": "C/C=C1\\NC(=O)c2cc(F)cc(n2)CNC(=O)C[C@@H](/C=C/CCSC(C)=O)OC(=O)[C@H](Cc2ccc(O)cc2)NC1=O [Example 82]", "Unit tag": "µM", "GI50": 0.02}
{"Compound": "C/C=C1\\NC(=O)c2ccc(F)c(n2)CNC(=O)C[C@@H](/C=C/CCSC(=O)CCCCCCC)OC(=O)[C@H](C)NC1=O [Example 62]", "Unit tag": "µM", "GI50": 0.03}
{"Compound": "C/C=C1\\NC(=O)c2nc(ccc2F)CNC(=O)C[C@@H](/C=C/CCSC(=O)CCCCC)OC(=O)[C@H](C(C)C)NC1=O [Compound 36]", "Unit tag": "µM", "GI50": 0.04}
{"Compound": "C/C=C1\\NC(=O)c2cccc(n2)CNC(=O)C[C@@H](/C=C/CCS)OC(=O)[C@@H](C)NC1=O [Compound 145]", "Unit tag": "µM", "GI50": 0.1}
{"Compound": "C/C=C1\\NC(=O)c2cccc(n2)CNC(=O)C[C@@H](/C=C/CCSC(C)=O)OC(=O)[C@@H](C)NC1=O [Example 25]", "Unit tag": "µM", "GI50": 0.3}
{"Compound": "CC(=O)SCC/C=C/[C@@H]1CC(=O)NCc2ccc(F)c(n2)C(=O)NC(=C(C)C)C(=O)N[C@@H](C(C)C)C(=O)O1 [Compound 87]", "Unit tag": "µM", "GI50": 0.01}
{"Compound": "C/C=C1\\NC(=O)c2cc(F)cc(n2)CNC(=O)C[C@@H](/C=C/CCSC(=O)CCCCCCC)OC(=O)[C@H](C)NC1=O [Compound 61]", "Unit tag": "µM", "GI50": 0.03}
{"Compound": "C/C=C1\\NC(=O)c2nc(ccc2F)CNC(=O)C[C@@H](/C=C/CCSC(=O)CCCCCCC)OC(=O)[C@H](C)NC1=O [Example 60]", "Unit tag": "µM", "GI50": 0.01}
{"Compound": "C/C=C1\\NC(=O)c2nc(ccc2F)CNC(=O)C[C@@H](/C=C/CCSC(=O)CCCCCCC)OC(=O)[C@H](CC)NC1=O [Example 54]", "Unit tag": "µM", "GI50": 0.03}
{"Compound": "C/C=C1\\NC(=O)c2ccc(F)c(n2)CNC(=O)C[C@@H](/C=C/CCSC(C)=O)OC(=O)[C@H](CC)NC1=O [Example 59]", "Unit tag": "µM", "GI50": 0.03}
{"Compound": "C/C=C1\\NC(=O)c2nc(ccc2F)CNC(=O)C[C@@H](/C=C/CCSC(=O)CCC)OC(=O)[C@H](C(C)C)NC1=O [Example 42]", "Unit tag": "µM", "GI50": 0.08}
{"Compound": "C/C=C1\\NC(=O)c2nc(ccc2F)CNC(=O)C[C@@H](/C=C/CCS)OC(=O)[C@H](CCCCNC(=O)OCC2c3ccccc3-c3ccccc32)NC1=O [Compound 120]", "Unit tag": "µM", "GI50": 0.02}
{"Compound": "C/C=C1\\NC(=O)c2cc(F)cc(n2)CNC(=O)C[C@@H](/C=C/CCSC(=O)CCCCCCC)OC(=O)[C@H](CC)NC1=O [Compound 55]", "Unit tag": "µM", "GI50": 0.02}
{"Compound": "C/C=C1\\NC(=O)c2cc(F)cc(n2)CNC(=O)C[C@@H](/C=C/CCS)OC(=O)[C@H](C(C)C)NC1=O [Compound 107]", "Unit tag": "µM", "GI50": 0.03}
{"Compound": "C/C=C1\\NC(=O)c2cc(F)cc(n2)CNC(=O)C[C@@H](/C=C/CCSC=O)OC(=O)[C@H](C(C)C)NC1=O [Compound 52]", "Unit tag": "µM", "GI50": 0.03}
{"Compound": "C/C=C1\\NC(=O)c2cc(F)cc(n2)CCNC(=O)C[C@@H](/C=C/CCSC(C)=O)OC(=O)[C@H](C(C)C)NC1=O [Compound 104]", "Unit tag": "µM", "GI50": 0.03}
{"Compound": "C/C=C1\\NC(=O)c2nc(ccc2F)CNC(=O)C[C@@H](/C=C/CCS)OC(=O)[C@H](C)NC1=O [Compound 112]", "Unit tag": "µM", "GI50": 0.09}
{"Compound": "C/C=C1\\NC(=O)c2ccc(F)c(n2)CCNC(=O)C[C@@H](/C=C/CCSC(C)=O)OC(=O)[C@H](C(C)C)NC1=O [Compound 105]", "Unit tag": "µM", "GI50": 0.02}
{"Compound": "C/C=C1\\NC(=O)c2nc(ccc2F)CNC(=O)C[C@@H](/C=C/CCSC(C)=O)OC(=O)[C@H](Cc2ccc(O)cc2)NC1=O [Compound 81]", "Unit tag": "µM", "GI50": 0.03}
{"Compound": "C/C=C1\\NC(=O)c2cccc(n2)NC(=O)C[C@@H](/C=C/CCSC(C)=O)OC(=O)[C@H](C(C)C)NC1=O [Example 22]", "Unit tag": "µM", "GI50": 2.06}
